Biological target: PDGFRα (Homo sapiens (Human), UniProt P16234)
Sequence (P16234 24-1089): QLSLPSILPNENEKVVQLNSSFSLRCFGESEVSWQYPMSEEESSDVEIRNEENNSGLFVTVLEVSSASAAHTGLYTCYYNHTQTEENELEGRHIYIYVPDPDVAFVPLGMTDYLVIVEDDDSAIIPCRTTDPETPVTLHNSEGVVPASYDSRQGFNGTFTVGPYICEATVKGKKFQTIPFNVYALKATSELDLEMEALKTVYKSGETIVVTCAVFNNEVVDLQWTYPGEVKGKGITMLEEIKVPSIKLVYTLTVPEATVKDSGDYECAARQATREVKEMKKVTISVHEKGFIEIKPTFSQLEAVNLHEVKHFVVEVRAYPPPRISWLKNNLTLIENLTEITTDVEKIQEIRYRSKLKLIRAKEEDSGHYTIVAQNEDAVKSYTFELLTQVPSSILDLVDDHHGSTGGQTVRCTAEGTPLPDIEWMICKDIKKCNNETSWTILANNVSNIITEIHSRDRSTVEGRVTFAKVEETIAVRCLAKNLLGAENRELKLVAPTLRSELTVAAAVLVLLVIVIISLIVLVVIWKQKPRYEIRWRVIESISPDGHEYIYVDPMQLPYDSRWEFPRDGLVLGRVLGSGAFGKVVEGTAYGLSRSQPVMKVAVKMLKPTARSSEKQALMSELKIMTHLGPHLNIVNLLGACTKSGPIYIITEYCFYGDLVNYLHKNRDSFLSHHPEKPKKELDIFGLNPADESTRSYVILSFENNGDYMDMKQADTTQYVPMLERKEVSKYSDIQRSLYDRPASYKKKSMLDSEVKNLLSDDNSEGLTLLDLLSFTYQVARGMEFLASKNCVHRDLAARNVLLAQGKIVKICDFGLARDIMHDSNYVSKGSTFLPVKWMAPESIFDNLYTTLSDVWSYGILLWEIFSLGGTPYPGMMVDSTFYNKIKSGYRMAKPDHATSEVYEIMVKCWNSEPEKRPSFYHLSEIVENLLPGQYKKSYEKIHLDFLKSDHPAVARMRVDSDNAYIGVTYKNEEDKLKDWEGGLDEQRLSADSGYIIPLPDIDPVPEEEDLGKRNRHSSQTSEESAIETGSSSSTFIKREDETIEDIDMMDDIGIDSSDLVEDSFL
Experiment: Inhibition of PDGFRα kinase activity (HTRF KinEASE-TK)
Details: biochemical, HTRF KinEASE-TK
pIC50: −log10 of the molar value.
assay-metric: pIC50

Please review the entries below; each comes with its answer.
compound-smiles	pIC50
Cc1cc(F)c(C(=O)N[C@H]2C[C@@H](C(N)=O)C2)cc1NC(=O)c1cnc(N)s1	< 6.00
Cc1cc(F)c(C(=O)Nc2ccc(OC3(C)CC3)cn2)cc1NC(=O)c1cnc(N)s1	6.00 to 7.00
Cc1ncc(C(=O)Nc2cc(C(=O)Nc3ccc(C(F)(F)F)nc3)c(F)cc2C)s1	< 6.00
Cc1cc(F)c(C(=O)Nc2ccc(OC(F)F)cc2)cc1NC(=O)c1cnc(N)s1	> 7.00
Cc1ncc(C(=O)Nc2cc(C(=O)Nc3cnc(OC[C@@H]4CC4(F)F)cn3)c(F)cc2C)s1	< 6.00

For the molecule Cc1ncc(C(=O)Nc2cc(C(=O)Nc3cncc(COC(F)F)c3)c(F)cc2C)s1 , give its reported pIC50. < 6.00

For the molecule CO[C@H]1C[C@@H](n2nccc2NC(=O)c2cc(NC(=O)c3cnc(N)s3)c(C)cc2F)C1 , give its reported pIC50. < 6.00

For the molecule Cc1ncc(C(=O)Nc2cc(C(=O)Nc3ccc(C4(C(F)(F)F)CC4)cn3)c(F)cc2C)s1 , give its reported pIC50. < 6.00
